From: PubChem BioAssay (NCI)

# System: 786-0 renal
Labels: 1 (active), 0 (inactive)

In [3]: df
Out[3]:
                                    compound  testedtarget  assignedclass
 0  COc1cc2c(cc1OC)[C@@H]1C(=O)c3cc4c(cc3[C@@H]1N(CCN(C)C)C2=O)OCO4   786-0 renal              1
 1  CCO.CCO.Oc1ccc(Nc2ncns2)cc1.Oc1ccc(Nc2ncns2)cc1.[Ti]   786-0 renal              0
 2  COc1cc(/C=C2\CN(S(=O)(=O)c3ccc(C)cc3)C/C(=C\c3cc(CN4CCOCC4)c(O)c(OC)c3)C2=O)cc(CN2CCOCC2)c1O   786-0 renal              0
 3  c1ccc(CSCCNCCN(CCNCCSCc2ccccc2)CCNCCSCc2ccccc2)cc1   786-0 renal              0
 4  CCOC(=O)C1=C(C)N=C2SC=C(c3ccccc3)N2[C@H]1c1cn[nH]c1-c1ccc(Cl)cc1   786-0 renal              0
 5  CCOC(=O)c1ccc2c(c1)nc(-c1ccc(Cl)cc1)n2-c1cc(C(C)(C)C)[nH]n1   786-0 renal              0
 6            CCN(Cc1cccnc1)c1ccc(CO)c(Cl)c1   786-0 renal              0
 7     Cc1ccc(/C=C2\COc3ccc(O)c(O)c3C2=O)cc1   786-0 renal              0
 8  COc1ccc(C(=O)/C=C/c2c(OC)cc(OC)cc2OC)c(OC)c1   786-0 renal              0
 9  CC12OC(CC(O)C1O)n1c3ccccc3c3c4c(c5c6ccccc6n2c5c31)C(=O)N(CCN1CCCC1)C4=O (configuration not stated)   786-0 renal              0
10  O=C1Nc2ccccc2/C1=C/C(=O)c1ccc(N2CCCC2)cc1   786-0 renal              0
11  COc1cccc(C(=O)c2sc(Nc3ccc(N4CCN(C(C)C)CC4)cc3)nc2N)c1   786-0 renal              0
12  C/C(=N\NC(=O)c1ccc(C(C)(C)C)cc1)c1ccc(O)cc1O   786-0 renal              0
13  O=C1c2ccccc2-c2c1c1ccc([N+](=O)[O-])cc1c(=O)n2CCCN1CCOCC1   786-0 renal              1
14  O=C1c2ccccc2C(=O)c2c(Nc3ccc(CCO)cc3)ccc(O)c21   786-0 renal              0
15  Nc1ccn(C2OC(CO)C(O)C2(F)F)c(=O)n1 (configuration not stated)   786-0 renal              1
16               CCCCCCCCCCCCCCCCSC(=NCC)NCC   786-0 renal              0

----------
# Tested on: MOLT-4 leukemia
Labels: active, inactive

>>> print(df.to_string())
                                   molecule  assignedclass
0  COc1ccc2c(NCCCCCCCCNc3c4ccccc4nc4cc(OC)ccc34)c3ccccc3nc2c1         active
1  CC(C)Cc1ccc(C(C)C(=O)NCc2ccc(Cn3c(=O)sn(CCCCl)c3=O)cc2)cc1 (stereo not drawn)       inactive
2  O=C(Cc1csc2nc(-c3ccc(Br)cc3)cn12)N/N=C/c1ccccc1       inactive
3  COc1ccc(C(=O)/C=C/c2c(OC)cc(OC)cc2OC)c(OC)c1       inactive
4     Cc1ccc(/C=C2\COc3ccc(O)c(O)c3C2=O)cc1         active
5            CCN(Cc1cccnc1)c1ccc(CO)c(Cl)c1       inactive
6  Cc1cc2c(cc1C)[n+](=O)c(C(=O)C(C)(C)C)c(C(F)(F)F)n2[O-]       inactive
7  COc1cc(C(=O)N2CCN(c3ccccn3)CC2)c(N)cc1OCc1ccccc1       inactive

----------
The entries below are paired with their reported TGI.
# Test system: KM12 colon
# measurementDescription: NCI tumour cell line growth inhibition, 48 h
metricName: TGI

>>> print(df.to_string())
                                    compound  endpointresult
 0  COc1ccc2c(c1)OCC1Cc3cc4c(cc3OC21)OCO4 (stereo not drawn)        > 100 µM
 1              O=C(O)CCn1cnc2c(=S)nc[nH]c21        > 100 µM
 2  CCOC(=O)C1C(=O)CN2CCc3c([nH]c4ccccc34)C12C(=O)OCC (stereo not drawn)        > 100 µM
 3  Cc1cc(S(=O)(=O)Nc2n[nH]c(-c3ccc(Cl)cn3)n2)c(S)cc1Cl        > 100 µM
 4  Cc1ccc(S(=O)(=O)CC(=O)CC(=O)C(=O)Nc2cccc(C(F)(F)F)c2)cc1        > 100 µM
 5  COC1CC(C)(NC(C)=O)C2OC(c3ccccc3)OCC2O1 (stereo not drawn)        > 100 µM
 6                      C[O+]=c1cccc2ssnc1-2        > 100 µM
 7  C=C1C(=O)OC2C1C(=O)C/C(C)=C/CCC1(C)OC21 (stereo not drawn)         53.3 µM
 8  O=C1CSC(c2cccc([N+](=O)[O-])c2)N1c1ccc(-c2ccc(-n3c(-c4ccccc4)nc4ccccc4c3=O)cc2)cc1 (stereo not drawn)           81 µM
 9  CC(=O)NNc1nc(C)c(C(=O)NNC(=O)C(=O)Nc2c(C)cccc2C(C)C)s1        > 100 µM
10         CC(=O)Nc1nc2ncc(C=O)nc2c(=O)[nH]1        > 100 µM
11  CN(C)c1ccc(/C=C2\C[C@H]3[C@@H]4CCc5cc(OCCN6CCCC6)ccc5[C@H]4CC[C@]3(C)[C@H]2O)cc1       > 60.2 µM
12  CSc1nc2c(nc(N)n2C2OC(CO)C(O)C(O)C2O)c(=O)n1C (stereo not drawn)        > 100 µM
13  O=C(COc1ccc2c(=O)cc(-c3ccc(Cl)cc3)oc2c1)N1CCN(c2ccccc2)CC1        > 100 µM
14   O=C1/C(=N\O)C2CCC1C2 (stereo not drawn)        > 100 µM
15            O=C(O)/C=C/C=C/c1ccc2c(c1)OCO2        > 100 µM
16  Cc1ccc(S(=O)(=O)n2cc(/C=C/C#N)c(/C=C/C#N)c2)cc1        > 100 µM
17  CC12OC(CC(O)C1O)n1c3ccccc3c3c4c(c5c6ccccc6n2c5c31)C(=O)N(CCN1CCCC1)C4=O (stereo not drawn)         8.68 µM
18  C#CCCCC(=C)C[C@@H]1OC(=O)[C@H](C)[C@@H]1O        > 100 µM
19             O=C(CI)OCC(COC(=O)CI)OC(=O)CI         26.8 µM
20  Cc1cccc2c1CC1(Cc3ccccc3C1=O)C2=O (stereo not drawn)        > 100 µM
21  CCO.CCO.Oc1ccc(Nc2ncns2)cc1.Oc1ccc(Nc2ncns2)cc1.[Ti]        > 100 µM
22  Clc1ccc(C2=Nc3ccccc3SC(c3cccs3)C2)cc1 (stereo not drawn)         22.5 µM
23         COc1cc(/C=C2\CCc3ccccc3C2=O)ccc1O         30.8 µM
24  OC1c2c(ccc3c2CCC3)CC12Cc1ccccc1C2 (stereo not drawn)         29.7 µM
25  COc1cccc(C(=O)c2sc(Nc3ccc(N4CCN(C(C)C)CC4)cc3)nc2N)c1         7.13 µM
26  O=C1/C(=N\n2c(-c3ccncc3)n[nH]c2=S)c2cc(Cl)ccc2N1CN1CCCCC1        > 100 µM
27  CC(C)(C)OC(=O)NC(Cc1ccc(OCc2ccccc2)cc1)C(=O)NC(COCc1ccccc1)C(=O)Oc1c(Cl)c(Cl)c(Cl)c(Cl)c1Cl (stereo not drawn)           39 µM
28                     S=c1ncc2n[nH]nc2[nH]1        > 100 µM
29  CN(C)c1ccc(C2SCC(=O)N2c2nc3cc4sc(N5C(=O)CSC5c5ccc(N(C)C)cc5)nc4cc3s2)cc1 (stereo not drawn)        > 100 µM
30  COc1oc(C(=O)NC2CCCCC2)c(-c2ccc(Cl)cc2)c1S(=O)(=O)c1ccccc1         25.2 µM
31                   CCOC(=O)c1nnsc1NC(=O)NN        > 100 µM
32  C[C@@H](c1ccccc1)N1CN(C(=O)OCc2ccccc2)C(CO)C1=O (stereo partly drawn)        > 100 µM
33  CC12CCC(=O)N1c1cnccc1N2 (stereo not drawn)        > 100 µM
34  CN(C)c1ccc(C(C#N)NNC(=O)Cc2ccccc2)cc1 (stereo not drawn)        > 100 µM
35  Cc1ccc(N=Nc2c(C)nn(-c3ccccc3)c2-c2ccccc2)c(Br)c1        > 100 µM
36  O=C1c2ccccc2-c2c1c1ccc([N+](=O)[O-])cc1c(=O)n2CCCN1CCOCC1        > 100 µM
37  OCCCc1n(Cc2ccc3ccccc3c2)c2ccccc2[n+]1Cc1ccc2ccccc2c1         3.08 µM
38  N#CC1(Cc2ccccc2)CCCCN1C(=O)c1ccccc1 (stereo not drawn)        > 100 µM
39                    NNC(=O)c1n[nH]n(N)c1=S        > 100 µM
40  CCOC(=O)/C(ON)=C(/CC/C(C(=O)OC)=C(\ON)C(=O)OCC)C(=O)OC        > 100 µM
41  Cn1c(-c2ccccc2)c2cc3nc4ccccc4nc3cc2c1-c1ccccc1         72.1 µM
42  CC(C)Cc1ccc(C(C)C(=O)NCc2ccc(Cn3c(=O)sn(CCCCl)c3=O)cc2)cc1 (stereo not drawn)         3.45 µM
